Can you tell me OD 450 nm for the items I'm about to list?
Molecular target: T1, Antigen CD66c (CEACAM6; Sino Biological, Inc.) (UniProt P40199 35-320)
T1 construct: Bought antigen coated on the ELISA plate; construct not described; also called CD66c antigen; CECACAM6
T1 sequence (looked up): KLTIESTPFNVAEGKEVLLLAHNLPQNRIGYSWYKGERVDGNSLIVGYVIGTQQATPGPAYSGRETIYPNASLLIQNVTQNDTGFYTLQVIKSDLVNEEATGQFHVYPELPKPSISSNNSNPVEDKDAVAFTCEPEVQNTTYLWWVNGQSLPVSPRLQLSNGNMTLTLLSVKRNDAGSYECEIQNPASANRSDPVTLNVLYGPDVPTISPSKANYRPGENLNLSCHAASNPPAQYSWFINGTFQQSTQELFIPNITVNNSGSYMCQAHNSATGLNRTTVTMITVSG
Assay: ELISA, coated CEACAM6 100 ng/well, antibody 123.46 ng/ml
Answer in OD, number only, no unit symbol.

Per the records, this binder ( anti-CD66c chimeric antibody 8F5 (antibody, human IgG1, V domains shown, also called chimeric 8F5 antibody; chi 8F5) VH: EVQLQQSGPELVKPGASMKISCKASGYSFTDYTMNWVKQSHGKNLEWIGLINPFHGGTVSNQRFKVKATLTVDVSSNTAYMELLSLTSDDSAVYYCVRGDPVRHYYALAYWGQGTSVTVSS VL: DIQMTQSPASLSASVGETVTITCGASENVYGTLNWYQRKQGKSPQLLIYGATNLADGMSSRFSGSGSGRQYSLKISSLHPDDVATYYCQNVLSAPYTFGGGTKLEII ) has OD 450 nm equal to 2.83

Per the records, this binder ( recombinant humanized anti-CD66c antibody Protein ID 3043 (Vk8 + VH6) (antibody, human IgG1, V domains shown, also called hu 3043; #71) VH: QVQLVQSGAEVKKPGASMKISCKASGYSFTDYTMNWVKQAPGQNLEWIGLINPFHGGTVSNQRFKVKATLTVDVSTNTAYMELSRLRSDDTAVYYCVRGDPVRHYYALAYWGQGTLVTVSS VL: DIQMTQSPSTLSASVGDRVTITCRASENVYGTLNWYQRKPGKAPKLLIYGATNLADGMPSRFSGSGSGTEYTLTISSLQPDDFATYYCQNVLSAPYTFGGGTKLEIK ) has OD 450 nm equal to 2.29

Per the records, this binder ( recombinant humanized anti-CD66c antibody Protein ID 3007 (Vk7 + VH6) (antibody, human IgG1, V domains shown, also called hu 3007; #43) VH: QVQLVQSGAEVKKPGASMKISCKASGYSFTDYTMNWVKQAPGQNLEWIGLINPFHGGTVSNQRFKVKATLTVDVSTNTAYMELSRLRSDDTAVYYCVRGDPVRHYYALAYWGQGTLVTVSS VL: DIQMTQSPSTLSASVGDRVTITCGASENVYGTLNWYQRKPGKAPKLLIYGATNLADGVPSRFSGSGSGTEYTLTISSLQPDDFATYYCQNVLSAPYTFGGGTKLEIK ) has OD 450 nm equal to 2.9

Per the records, this binder ( recombinant humanized anti-CD66c antibody Protein ID 3058 (Vk8 + VH11) (antibody, human IgG1, V domains shown, also called hu 3058; #86) VH: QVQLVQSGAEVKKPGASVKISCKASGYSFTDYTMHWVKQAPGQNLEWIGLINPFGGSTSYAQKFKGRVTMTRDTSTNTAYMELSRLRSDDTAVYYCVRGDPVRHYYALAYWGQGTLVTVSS VL: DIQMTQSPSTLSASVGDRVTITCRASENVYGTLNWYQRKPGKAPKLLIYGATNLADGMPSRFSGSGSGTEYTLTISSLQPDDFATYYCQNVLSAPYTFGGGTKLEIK ) has OD 450 nm equal to 2.22

Per the records, this binder ( recombinant humanized anti-CD66c antibody Protein ID 2938 (Vk5 + VH7) (antibody, human IgG1, V domains shown, also called hu 2938) VH: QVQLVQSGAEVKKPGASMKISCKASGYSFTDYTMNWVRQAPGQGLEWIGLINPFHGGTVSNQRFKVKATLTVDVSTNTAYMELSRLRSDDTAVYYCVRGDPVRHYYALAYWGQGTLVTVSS VL: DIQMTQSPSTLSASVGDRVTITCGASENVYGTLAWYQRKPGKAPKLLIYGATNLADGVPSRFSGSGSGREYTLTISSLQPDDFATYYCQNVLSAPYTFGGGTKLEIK ) has OD 450 nm equal to 2.56

Per the records, this binder ( recombinant humanized anti-CD66c antibody Protein ID 3019 (Vk7 + VH10) (antibody, human IgG1, V domains shown, also called hu 3019; #51) VH: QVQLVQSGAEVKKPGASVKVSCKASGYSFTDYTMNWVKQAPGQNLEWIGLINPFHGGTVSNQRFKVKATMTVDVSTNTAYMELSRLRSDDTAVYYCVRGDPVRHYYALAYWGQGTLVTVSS VL: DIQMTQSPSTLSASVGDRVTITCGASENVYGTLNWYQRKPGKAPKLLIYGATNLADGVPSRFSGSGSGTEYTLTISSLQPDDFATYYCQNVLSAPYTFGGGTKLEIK ) has OD 450 nm equal to 3.04
